system: HeLa; assay: Growth inhibition of human HeLa cells by Sulforhodamine B assay; format: functional
Reported GI50 values follow for various compounds
parameter_measured: GI50 (µM)

[[record]]
compound = "CC(C)(O)C1CC[C@@]2(C)CCC[C@@](C)(O)[C@@H]2C1 (some centres undefined)"
units_text = "µM"
bound_sign = "="
observed_measurement = 75.6

[[record]]
compound = "C=C1CC[C@H]2C(C)(C)CCC[C@]2(C)[C@H]1C/C=C1/CC(OC)OC1=O (some centres undefined)"
units_text = "µM"
bound_sign = ">"
observed_measurement = 100

[[record]]
compound = "CC1(C)CCC[C@]2(C)[C@@H](/C=C/C3=CC(=O)OC3)C(CO)=C(O)C(=O)[C@@H]12"
units_text = "µM"
bound_sign = "="
observed_measurement = 79.7

[[record]]
compound = "CC1=CC(=O)[C@H]2C(C)(C)CCC[C@]2(C)[C@H]1/C=C/c1ccoc1"
units_text = "µM"
bound_sign = "="
observed_measurement = 63.2


###

tested on: MCF7; assay: Growth inhibition of human MCF7 cells by Sulforhodamine B assay; type: functional
Reported GI50 values follow for various molecules
parameter_measured: GI50

[[record]]
molecule = "C=C1CC[C@H]2C(C)(C)CCC[C@]2(C)[C@H]1CCC1=CC(O)OC1=O (stereo partly drawn)"
parameter_measured = "GI50"
observed_measurement = "32.6 µM"

[[record]]
molecule = "CC1=CC(=O)[C@H]2C(C)(C)CCC[C@]2(C)[C@H]1/C=C/c1ccoc1"
parameter_measured = "GI50"
observed_measurement = "14.9 µM"

[[record]]
molecule = "C=C1CC[C@H]2C(C)(C)CCC[C@]2(C)[C@H]1C/C=C1/CC(OC)OC1=O (stereo partly drawn)"
parameter_measured = "GI50"
observed_measurement = "25.3 µM"

[[record]]
molecule = "CC1=CC(=O)[C@H]2C(C)(C)CCC[C@]2(C)[C@H]1/C=C/C1=CCOC1=O"
parameter_measured = "GI50"
observed_measurement = "15.7 µM"

[[record]]
molecule = "C=C1CC[C@H]2C(C)(C)CCC[C@]2(C)[C@H]1C/C=C1/CC(O)OC1=O (stereo partly drawn)"
parameter_measured = "GI50"
observed_measurement = "17.4 µM"

[[record]]
molecule = "CC(C)(O)C1CC[C@@]2(C)CCC[C@@](C)(O)[C@@H]2C1 (stereo partly drawn)"
parameter_measured = "GI50"
observed_measurement = "62.3 µM"

[[record]]
molecule = "COc1cc(/C=C/C=O)ccc1O"
parameter_measured = "GI50"
observed_measurement = "39.5 µM"

[[record]]
molecule = "CC1(C)CCC[C@]2(C)[C@@H](/C=C/C3=CC(=O)OC3)C(CO)=C(O)C(=O)[C@@H]12"
parameter_measured = "GI50"
observed_measurement = "12 µM"


###

system: MCF7; assay: Growth inhibition of human MCF7 cells by Sulforhodamine B assay; assay type: functional
Reported LC50 (concentration killing 50% of cells) values follow for various compounds
parameter_measured: LC50 (concentration killing 50% of cells) (µM)

[[record]]
compound = "C=C1CC[C@H]2C(C)(C)CCC[C@]2(C)[C@H]1CCC1=CC(O)OC1=O (some centres undefined)"
units_text = "µM"
bound_sign = "="
observed_measurement = 40.7

[[record]]
compound = "C=C1C(C/C=C2\\COC(=O)C2)[C@@]2(C)CCCC(C)(C)[C@@H]2C[C@@H]1O (some centres undefined)"
units_text = "µM"
bound_sign = "="
observed_measurement = 55.6

[[record]]
compound = "CC1(C)CCC[C@]2(C)[C@@H](/C=C/C3=CCOC3=O)C(C=O)=CC(=O)[C@@H]12"
units_text = "µM"
bound_sign = ">"
observed_measurement = 100

[[record]]
compound = "CC1=CC(=O)[C@H]2C(C)(C)CCC[C@]2(C)C1/C=C/C1=CC(O)OC1=O (some centres undefined)"
units_text = "µM"
bound_sign = "="
observed_measurement = 34.8

